Listing: APOE RNA (% control) Spinal Cord of selected substances
- Tested on: human APOE RNA
- protocol-notes: Activity in APOE C57BL/6NTac-Apoeem7250 knock-in mice, single ICV bolus, 8 weeks (Example 11)
- Format: in vivo
- assay-setup: spinal cord; single ICV bolus 300 μg; 8 weeks post treatment; normalized to mouse Ppia
Strand notation (5' to 3'): a small letter for the sugar, then the base; units joined by * are phosphorothioate-linked, units joined directly phosphodiester-linked; [ ] holds rarer units or linkages, { } end groups; capitals alone tell only the bases. [ms] = mesyl phosphoramidate linkage; e = 2'-O-(2-methoxyethyl) (MOE); k = constrained ethyl (cEt); [5mC] = 5-methylcytosine; d = 2'-deoxy (DNA)
Answer format: value, then unit.

Example entries begin here.
# substance, tgt, APOE RNA (% control) Spinal Cord
measured = [
    ("1778125: modified oligonucleotide complementary to human APOE RNA (eA*e[5mC]eTeTeGeG*dT*dG[ms]dA[ms]dA*dT*d[5mC]*dT*dT*dT*dA[ms]kTkT*eA*eA; antisense) [compound 1778125]", "human APOE RNA", "37 % control"),
    ("1778119 (eA*e[5mC]eTeTeG*eG*dT*dG[ms]dA[ms]dA*dT*d[5mC]*dT*dT*dT*dA[ms]kTeT*eA*eA; antisense) [Compound 1778119]", "human APOE RNA", "27 % control"),
    ("1778114: modified oligonucleotide complementary to human APOE RNA (eA*e[5mC]eTeTkG*kG*dT*dG[ms]dA[ms]dA*dT*d[5mC]*dT*dT*dT*dA[ms]eTeT*eA*eA; antisense) [compound 1778114]", "human APOE RNA", "32 % control"),
]

Now turn to the next substance.
input: Using the record for Compound No. 1517853: comparator of WO 2022/066956; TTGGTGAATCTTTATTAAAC, sugar eeeeeddddddddddeeeee, linkages sooosssssssssssooss (MOE gapmer, mixed PS/PO linkages, chemistry not fully specified) [reference compound] , state its measured APOE RNA (% control) Spinal Cord.
output: 50 % control

----------
- Tested on: human APOE RNA
- protocol-notes: Duration of action study in APOE C57BL/6NTac-Apoeem7250 knock-in mice (Example 16)
- Type: in vivo
- assay-setup: cortex; 300 μg ICV; 140 days post-dose
- Description: Modified oligonucleotides described above were tested in the APOE C57BL/6NTac-Apoeem7250 knock-in mouse model described above. APOE C57BL/6NTac-Apoeem7250 knock-in mice were divided into groups of 2-4 mice each. […] Mice were sacrificed at various timepoints as indicated in the table below and RNA was extracted from cortical brain tissue and spinal cord for quantitative real-time RT-PCR analysis of RNA expression of APOE using primer probe set RTS3073 (described herein above). […]
Strand notation (5' to 3'): a small letter for the sugar, then the base; units joined by * are phosphorothioate-linked, units joined directly phosphodiester-linked; [ ] holds rarer units or linkages, { } end groups; capitals alone tell only the bases. [ms] = mesyl phosphoramidate linkage; k = constrained ethyl (cEt); [5mC] = 5-methylcytosine; d = 2'-deoxy (DNA)
// assign met if APOE RNA (% control) Cortex falls strictly below 70 % control, else not met (ties count as not met)

# substance, label
data = [
    ("1746804 (k[5mC]*kT*kT*dG[ms]dG[ms]dT[ms]dG[ms]dA[ms]dA[ms]dT*d[5mC]*dT*dT*dT*dA[ms]dT*dT[ms]kA*kA*kA; antisense) [Compound 1746804]", "met"),
    ("1746810 (k[5mC]*dT[ms]kT*dG[ms]dG[ms]kT*dG[ms]dA[ms]dA[ms]dT*d[5mC]*dT*dT*dT*dA[ms]dT*dT[ms]kA*kA*kA; antisense) [Compound 1746810]", "not met"),
]

input: Strictly below 70 % control: is that where APOE RNA (% control) Cortex of 1746811 (k[5mC]*dT[ms]dT[ms]kG*kG*dT[ms]dG[ms]dA[ms]dA[ms]dT*d[5mC]*dT*dT*dT*dA[ms]dT*dT[ms]kA*kA*kA; antisense) [Compound 1746811] sits?
output: not met

input: Strictly below 70 % control: is that where APOE RNA (% control) Cortex of 1746784 (k[5mC]*kT*kT*dG[ms]dG[ms]dT[ms]dG[ms]dA[ms]dA[ms]dT*d[5mC]*dT*dT*dT*dA[ms]dT*kT*kA*dA[ms]kA; antisense) [Compound 1746784] sits?
output: met

input: Strictly below 70 % control: is that where APOE RNA (% control) Cortex of 1747050 (k[5mC]*kT*kT*dG[ms]dG[ms]kT*dG[ms]dA[ms]dA[ms]dT*d[5mC]*dT*dT*dT*dA[ms]dT*kT*dA[ms]dA[ms]kA; antisense) [Compound 1747050] sits?
output: not met

input: Strictly below 70 % control: is that where APOE RNA (% control) Cortex of 1746790 (k[5mC]*dT[ms]kT*dG[ms]dG[ms]kT*dG[ms]dA[ms]dA[ms]dT*d[5mC]*dT*dT*dT*dA[ms]dT*kT*kA*dA[ms]kA; antisense) [Compound 1746790] sits?
output: not met

input: Strictly below 70 % control: is that where APOE RNA (% control) Cortex of 1746789 (k[5mC]*dT[ms]kT*dG[ms]kG*dT[ms]dG[ms]dA[ms]dA[ms]dT*d[5mC]*dT*dT*dT*dA[ms]dT*kT*kA*dA[ms]kA; antisense) [Compound 1746789] sits?
output: not met

input: Strictly below 70 % control: is that where APOE RNA (% control) Cortex of 1746801 (k[5mC]*dT[ms]dT[ms]kG*kG*dT[ms]dG[ms]dA[ms]dA[ms]dT*d[5mC]*dT*dT*dT*dA[ms]dT*kT*dA[ms]kA*kA; antisense) [Compound 1746801] sits?
output: met

input: Strictly below 70 % control: is that where APOE RNA (% control) Cortex of 1746809 (k[5mC]*dT[ms]kT*dG[ms]kG*dT[ms]dG[ms]dA[ms]dA[ms]dT*d[5mC]*dT*dT*dT*dA[ms]dT*dT[ms]kA*kA*kA; antisense) [Compound 1746809] sits?
output: met

This collection of values is drawn from patent US20250353873A1.
